Please respond with reported morphology score for every item in the list.
- Test system: Vero E6 infected with SARS-CoV-2
- assay.info: morphology score (similarity to uninfected cells); higher = more like uninfected cells
- measurement.parameters: 24 h
Please state the value as a number alone, without comment.

The reported value for CC(=O)Nc1nnc(S(N)(=O)=O)s1 [acetazolamide] (10 µM) in terms of morphology score is 0.0392

The reported value for O=c1cc(-c2cccc3c2Sc2ccccc2S3)oc(N2CCOCC2)c1 (10 µM) in terms of morphology score is 0.284

The reported value for NCCCC[C@H](NC(=O)[C@@H]1CCCN1C(=O)[C@@H]1CSSC[C@H](NC(=O)CNC(=O)CNC(=O)CN)C(=O)N[C@@H](Cc2ccc(O)cc2)C(=O)N[C@@H](Cc2ccccc2)C(=O)N[C@@H](CCC(N)=O)C(=O)N[C@@H](CC(N)=O)C(=O)N1)C(=O)NCC(N)=O [terlipressin] (10 µM) in terms of morphology score is 0.0361

The reported value for NC(=O)c1cnc2[nH]ccc2c1N[C@@H]1[C@@H]2CC3C[C@H]1C[C@@](O)(C3)C2 (10 µM) in terms of morphology score is 0.174

The reported value for Nc1ncccc1-c1nc2ccc(-c3ccccc3)nc2n1-c1ccc(C2(N)CCC2)cc1 (10 µM) in terms of morphology score is 0.702

The reported value for O=C(/C=C/N1C[C@H]2C[C@@H]1CN2c1ccccn1)c1ccccc1O (10 µM) in terms of morphology score is -0.0425

The reported value for COc1cc(-c2ncn(/C=C\C(=O)OC(C)C)n2)cc(C(F)(F)F)c1 (10 µM) in terms of morphology score is -0.358

The reported value for Cn1c2c(c3ccccc31)CCNCC2 (10 µM) in terms of morphology score is 0.0193

The reported value for CC(C)c1cccc2c(-c3ccccc3)cc(-c3ccc(-c4ccc(C(=O)O)cc4)[nH]3)nc12 (10 µM) in terms of morphology score is 0.104

The reported value for C[N+]1([O-])[C@@H]2CC[C@H]1C[C@@H](OC(=O)C(CO)c1ccccc1)C2 (some centres not stated) [atropine-oxide] (10 µM) in terms of morphology score is 0.0224

The reported value for CO[C@H]1O[C@@H]2O[C@@]3(C)CC[C@H]4[C@H](C)CC[C@@H]([C@H]1C)[C@@]24OO3 [artemether] (10 µM) in terms of morphology score is 0.0275

The reported value for O=c1[nH]c([C@@H]2CCCN2)nc2c1oc1ccc(Cl)cc12 (0.833333 µM) in terms of morphology score is 0.106

The reported value for O=C(O)/C=C/c1ccc(O)c(O)c1 [caffeic-acid] (10 µM) in terms of morphology score is -0.0394

The reported value for N[C@H](CO)C(=O)O [D-serine] (10 µM) in terms of morphology score is 0.0301

The reported value for N=C(N)NC(=O)Cc1c(Cl)cccc1Cl [guanfacine] (10 µM) in terms of morphology score is 0.255

The reported value for COc1c(O)cc2c(c1O)[C@@H]1O[C@H](CO)[C@@H](O)[C@H](O)[C@H]1OC2=O [bergenin] (10 µM) in terms of morphology score is 0.087

The reported value for O=C(O)c1cc(/N=N/c2ccc(O)c(C(=O)O)c2)ccc1O [olsalazine] (10 µM) in terms of morphology score is 0.062

Data provenance is the supplement of paper PMC13380429.
